Attribution: patent US6737383B1

- Test system: wild oat
- assay_name: Test B pre/postemergence wild oat
- Format: in vivo, Avena fatua
- condition_info: Preemergence, Rate 62 g/ha; scale 0 to 10 (0 no effect, 10 complete control)

compound	Wild oats plant response rating
CCN(CC)C(=O)n1oc(=O)n(Cc2ccccc2)c1=O	0
CCCn1c(=O)on(C(=O)N(c2ccccc2)C(C)C)c1=O	7
CC(C)N(C(=O)n1oc(=O)n(C(C)C(=O)c2ccccc2)c1=O)c1ccccc1 (centres unmarked)	0
COCCn1c(=O)on(C(=O)N(c2ccccc2)C(C)C)c1=O	0
CC(C)N(C(=O)n1oc(=O)n(CCC(F)=C(F)F)c1=O)c1ccccc1	3
CC(C)N(C(=O)n1oc(=O)n(CC2=NOCCC2)c1=O)c1ccc(F)cc1F	0
CC(C)N(C(=O)n1oc(=O)n(CC(=O)N(C)C)c1=O)c1ccc(F)cc1	0
CC(C)N(C(=O)n1oc(=O)n(CC(=O)C(F)(F)F)c1=O)c1ccc(F)cc1F	0
COc1ccccc1Cn1c(=O)on(C(=O)N(c2ccccc2)C(C)C)c1=O	0
Cc1cccc(C(C)C)c1-n1c(=O)on(C(=O)N(c2ccc(Cl)cc2)C(C)C)c1=O	0
CC(C)N(C(=O)n1oc(=O)n(-c2cnn(C)c2Cl)c1=O)c1ccc(F)cc1	0
